B1: NCF4 (parent)
chain: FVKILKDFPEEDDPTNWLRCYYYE

variants of: B1; assay: protein stability index of a GFP-peptide fusion (GPS, HEK-293T) (PSI 1-6); higher = more stable; conditions: c terminus: a fixed tail appended;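 further: lentivirally expressed fusions sorted by FACS into six bins by GFP to DsRed ratio, PSI derived from sequencing read proportions per bin multiplied by bin number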
Quick list: protein stability index per entry.

mutation.spec	protein stability index
D7E	1
I4E	1.65
Y21F	1.91
L18K	1.55
L18S	2.15
E10Q	2.48
